// Assay (I) Glucagon [EC50] lookup, one value per entry
Biological target: glucagon receptor (human, UniProt P47871 26-477)
Sequence (P47871 26-477): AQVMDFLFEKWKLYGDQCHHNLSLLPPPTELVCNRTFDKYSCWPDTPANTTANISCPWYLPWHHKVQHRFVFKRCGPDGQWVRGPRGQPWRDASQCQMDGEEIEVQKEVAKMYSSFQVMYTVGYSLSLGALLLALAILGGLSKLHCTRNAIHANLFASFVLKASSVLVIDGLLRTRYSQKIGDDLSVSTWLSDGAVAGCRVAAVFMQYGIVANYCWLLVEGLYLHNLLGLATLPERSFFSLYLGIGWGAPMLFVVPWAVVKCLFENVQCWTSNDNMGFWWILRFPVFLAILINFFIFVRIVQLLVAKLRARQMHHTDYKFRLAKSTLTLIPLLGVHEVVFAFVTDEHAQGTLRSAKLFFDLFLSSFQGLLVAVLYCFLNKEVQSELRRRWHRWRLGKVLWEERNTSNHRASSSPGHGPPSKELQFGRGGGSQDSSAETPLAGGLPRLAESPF
Test: cell-based or functional assay
*1 amine or outer side, *2 acyl side, *3 side chain or, on linkers, in order; H or OH if unused. Where no end group is shown, it is not given here. Side-chain parts run from the residue outwards. The star is where a group is joined. C18 diacid = O=C(O)CCCCCCCCCCCCCCCCC(=O)*; γGlu = O=C(O)[C@H](CCC(=O)[*:2])N[*:1]; AEEA = NCCOCCOCC(=O)O
Numeric answer only, unit nM assumed.

1) HSQGTFTSDVSKYLDTRRAQEFVK([γGlu-γGlu-AEEA-AEEA-γGlu-C18 diacid])WLLST    0.139
2) HSQGTFTSDYSKYLDVRRAQDFVK([γGlu-γGlu-AEEA-AEEA-γGlu-C18 diacid])WLLNT    0.081
3) HSQGTFTSDYSKYLDLRRAQDFVK([γGlu-γGlu-γGlu-γGlu-C18 diacid])WLLST    0.126
4) HSQGTFTSDYSKYLDVRRAQDFVK([γGlu-γGlu-γGlu-γGlu-C18 diacid])WLLST    0.134

Kindly review the next binder as well.
Please indicate Assay (I) Glucagon [EC50] recorded for HSHGTFTSDYSKYLETRRAQDFVK([γGlu-γGlu-AEEA-AEEA-γGlu-C18 diacid])WLLNT
0.036

meta.source: patent US20130079278A1
